test system: fresh venal human blood; conditions: lipopeptide 1,600 mg/l in presence of 2.5% SBE-β-CD
Examples of molecules with documented Reduction of the hemolysis in % follow.
Give just the numeric value; % need not be written.

>>> observed("CCCCCCCCCCCCCCCCCC(=O)NC(CC(N)=O)C(=O)NC1C(=O)N2CCCCC2C(=O)NC(C(C)C(=O)O)C(=O)NC(CC(=O)O)C(=O)NCC(=O)NC(CC(=O)O)C(=O)NCC(=O)NC(C(C)N)C(=O)NC(C(C)C)C(=O)N2CCCC2C(=O)NC1C (stereo not shown)")
41.3
>>> observed("CCC(C)CCCCCC=CCC(=O)NC(CC(=O)O)C(=O)NC1C(=O)N2CCCCC2C(=O)NC(C(C)C(=O)O)C(=O)NC(CC(=O)O)C(=O)NCC(=O)NC(CC(=O)O)C(=O)NCC(=O)NC(C(C)N)C(=O)NC(C(C)C)C(=O)N2CCCC2C(=O)NC1C (stereo not shown) [Amphomycin, reference compound]")
99.6
>>> observed("CCCCC/C=C\\C/C=C\\C/C=C\\CCCCC(=O)NC(CC(N)=O)C(=O)NC1C(=O)N2CCCCC2C(=O)NC(C(C)C(=O)O)C(=O)NC(CC(=O)O)C(=O)NCC(=O)NC(CC(=O)O)C(=O)NCC(=O)NC(C(C)N)C(=O)NC(C(C)C)C(=O)N2CCCC2C(=O)NC1C (stereo not shown)")
87.0

Shift focus to the following entry.
So what does the record say about Reduction of the hemolysis in % for CC(C)C1NC(=O)C(C(C)N)NC(=O)CNC(=O)C(CC(=O)O)NC(=O)CNC(=O)C(CC(=O)O)NC(=O)C(C(C)C(=O)O)NC(=O)C2CCCCN2C(=O)C(NC(=O)C(CC(N)=O)NC(=O)c2ccc(CCc3ccc(CCc4ccccc4)cc3)cc2)C(C)NC(=O)C2CCCN2C1=O (stereo not shown) ? 99.5
